# Measured target: human β3 adrenergic receptor (Homo sapiens)
# Construct: stably transfected with the cloned β-adrenergic receptor (β1, β2 or β3); expressed in transfected cells; host or cells: Chinese hamster ovary (CHO) cells, stably transfected
# Sequence (P13945 whole entry): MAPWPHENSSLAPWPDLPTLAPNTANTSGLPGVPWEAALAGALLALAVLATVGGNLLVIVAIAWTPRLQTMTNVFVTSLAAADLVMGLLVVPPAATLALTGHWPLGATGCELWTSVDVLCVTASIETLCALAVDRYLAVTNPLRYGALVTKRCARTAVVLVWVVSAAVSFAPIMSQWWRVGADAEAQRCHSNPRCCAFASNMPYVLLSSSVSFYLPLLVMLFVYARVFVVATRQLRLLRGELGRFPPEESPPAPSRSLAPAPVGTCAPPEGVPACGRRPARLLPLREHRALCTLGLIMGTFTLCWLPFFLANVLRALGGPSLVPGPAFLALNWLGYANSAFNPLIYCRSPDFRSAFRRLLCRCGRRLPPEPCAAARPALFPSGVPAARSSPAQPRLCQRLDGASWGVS
# Assay protocol: β3AR-cAMP functional assay in CHO cells stably transfected with cloned β3-adrenergic receptor (LANCE)
# Format: cell-based
# Reported conditions: cAMP production, CHO cells expressing human β3 AR; read-out: human β3 functional activity
Listing of recorded EC50 by entry.

compound=O=C(c1ccc(C[C@@H]2CC[C@H]([C@H](O)c3ccccc3)N2)cn1)N1CCN(Cc2ccccn2)CC1 result="101 to 1000 nM"
compound="O=C(c1ccc(C[C@@H]2CC[C@H]([C@H](O)c3ccccc3)N2)cn1)N1C[C@@H]2C(n3cnnn3)[C@@H]2C1 (stereo partly shown)" result="11 to 100 nM"
compound=O=C(c1ccc(C[C@@H]2CC[C@H]([C@H](O)c3ccccc3)N2)cn1)N1CCC(c2nnnn2CC(F)(F)F)CC1 result="101 to 1000 nM"

We next turn to a different compound, shown below.
Q: Give reported EC50 value for `O=C(Nc1ccc(C[C@@H]2CC[C@H]([C@H](O)c3ccccc3)N2)cn1)[C@@H]1CCc2scnc21`
Result: 20.4 nM

###

Listing of recorded EC50 by entry.
# Measured target: human β3 adrenergic receptor (Homo sapiens)
# Construct: stably transfected with the cloned β-adrenergic receptor (β1, β2 or β3); expressed in transfected cells; host or cells: Chinese hamster ovary (CHO) cells, stably transfected
# Assay protocol: β3AR-cAMP functional assay in CHO cells stably transfected with cloned β3-adrenergic receptor (LANCE)
# Type: cell-based
# Reported conditions: Table 1; determined with β3AR-cAMP assay, given as ranges; read-out: Human β3 Binding

molecule=O=C(Cc1nnc(-c2ccccc2)[nH]1)Nc1ccc(C[C@@H]2CC[C@H]([C@H](O)c3ccccc3)N2)cn1 readout_kind=EC50 result="11 to 100 nM"
molecule=O=C(Cn1ncccc1=O)Nc1ccc(C[C@@H]2CC[C@H]([C@H](O)c3ccccc3)N2)cn1 readout_kind=EC50 result="101 to 1000 nM"

Q: Give reported EC50 value for O=C(Nc1ccc(C[C@@H]2CC[C@H]([C@H](O)c3ccccc3)N2)cn1)C1CCc2nccc(=O)n21 (stereo partly drawn)
Result: 11 to 100 nM
